Tested on: NCI-H522 lung
assay overview: NCI tumour cell line growth inhibition, 48 h; in the data active = GI50 below about 0.43 µM; inactive = the rest
Outcome codes: active, inactive

> print(dat)
                                   molecule    target.desc  category.label
1  C[N+](C)(C)CC1CCCc2ccccc2C1=O (stereo not drawn)  NCI-H522 lung        inactive
2        NC(N)=N/N=C/c1c(-c2ccsc2)nc2sccn12  NCI-H522 lung        inactive
3            NC(=O)/C=C/C(=O)c1c(Cl)cccc1Cl  NCI-H522 lung          active
4  CN(C)CCNC(=O)c1cccc2ccc(-c3ccc(O)cc3)nc12  NCI-H522 lung        inactive
5           O=C(Nc1ccc(Br)cc1F)c1cc(F)ccc1O  NCI-H522 lung          active
6  O=C(O)COc1ccc2c(=O)c3sc4c(=O)c5ccccc5c(=O)c4c3c(=O)c2c1  NCI-H522 lung        inactive
7  CC1=C(C(=O)Nc2ccc(F)c(Cl)c2)C(c2ccccc2O)NC(=S)N1 (stereo not drawn)  NCI-H522 lung        inactive
8  Cc1cc(C)c2c(n1)sc1c(Nc3ccc(Cl)cc3)ncnc12  NCI-H522 lung          active
